System: E. coli
Assay: Conjugate penetration into bacterial cells, flow cytometry
Assay type: cell-based, Escherichia coli
Conditions: 1 µM conjugate in LB medium, 1 h at 37°C, 3'-fluorescein label, mean ± SD from four independent experiments
property_name: Level of penetration, %, E.coli

Please review the following examples before continuing.
5’-Pept4-d(CAAGCAGCxCxTxAxCxCxC)–Flu-3’ [5'-Pept4-pgd-inh3-Flu, 5’-Pept4 conjugate of pgd-inh3 with 3’-fluorescein] :: 6,4±0,2%
5’-Pept2-d(CAAGCAGCxCxTxAxCxCxC)–Flu-3’ [5'-Pept2-pgd-inh3-Flu, 5’-Pept2 conjugate of pgd-inh3 with 3’-fluorescein] :: 5,3±0,3%
5’-Pept3-d(CAAGCAGCxCxTxAxCxCxC)–Flu-3’ [5'-Pept3-pgd-inh3-Flu, 5’-Pept3 conjugate of pgd-inh3 with 3’-fluorescein] :: 7,0±1%

Continue with the next substance.
Input line: Form field: Level of penetration, %, E.coli recorded for 5’-Pept1-d(CAAGCAGCxCxTxAxCxCxC)–Flu-3’ [5'-Pept1-pgd-inh3-Flu, 5’-Pept1 conjugate of pgd-inh3 with 3’-fluorescein] with E. coli (enter value)
Output line: 4,1±0,1%
